Tested on: mouse spermatids
Assay: Calcium imaging of mouse spermatids with bitter tastants
Format: cell-based
Settings: Mus musculus, read-out: EC50 of calcium response
Property Measured: EC50 (µM)
Output spec: scalar in µM, unitless text.

## Input Give the reported EC50 for this molecule. CC(C)(O)[C@@H]1[C@H]2OC(=O)[C@@H]1[C@]1(O)C[C@H]3O[C@]34C(=O)O[C@H]2[C@]14C [picrotin]
## Output 20

----------
Test system: epididymal sperm cells
Assay: Calcium imaging of mouse epididymal sperm cells with bitter tastants; further: test concentration or dose not given here
Assay type: cell-based
Conditions: epididymal sperm cells, 49 cells
Field: cells responding with calcium responses. Provide a value for each of the compounds that follow.

## Input Give the reported cells responding with calcium responses for this compound. `CC[N+](CC)(CC(=O)Nc1c(C)cccc1C)Cc1ccccc1`
## Output ~53.1%

## Input Give the reported cells responding with calcium responses for this compound. C[C@@H]1C[C@@H]([C@H](O)CC2CC(=O)NC(=O)C2)C(=O)[C@@H](C)C1 [cycloheximide]
## Output 93.9%
